Target: T1, rAB-Elavl (Acinetobacter baumannii, UniProt D0CAL6 1-86)
T1 sequence: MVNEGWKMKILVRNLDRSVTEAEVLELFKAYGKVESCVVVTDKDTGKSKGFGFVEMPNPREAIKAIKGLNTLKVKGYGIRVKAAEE
Assay: AlphaScreen time-course kinetics (koff/kon); koff 0.02687 min-1; kon printed as 2.035 M-1 min-1 (exponent apparently lost); AlphaScreen: 25 mM HEPES pH 7.4, 100 mM NaCl, 0.1% BSA, RT; REMSA: 20 mM HEPES pH 7.5, 50 mM KCl, 450 uM BSA, 0.25% glycerol, RT (gel at 4 C); NMR: 20 mM HEPES
Conditions: protein: recombinant; tags: C-terminal 6xHis; label: 5'-biotin; single strand
value-type: Kd (µM)
State the answer as a number, implicitly in µM.

Task: Please look up its Kd: AUUAUUUAUUAUUUAUUUAUUAUUUA (ssRNA) [ARE pos]
Output: 0.0132

Data origin, for the record: paper PMC9313427
